Recorded measurements of EC50, one per entry
- testMethodNotes: Lactate dehydrogenase (LDH) release assay
- Assay type: cell-based
- setupConditions: LDH: Cytotoxicity assay: EC50
- Method: HCT116 cells were stably transfected with a p53 responsive β-lactamase reporter and expanded in McCoy’s 5 A Medium with 10% fetal bovine serum (FBS), Blasticidin, and Penicillin/Streptomycin and then transferred to 1.5 ml freezing vials and stored under liquid nitrogen in growth media containing 5% DMSO. […] Lactate dehydrogenase release was detected using the CytoTox-ONE Homogenous Membrane Integrity Assay Kit (Promega), as per the manufacturer’s instructions. […]
Positions of bridges follow the written chain, without caps; N, C: chain ends. Non-standard residues stand in square brackets, D forms with d. Residues, ends and D or L forms follow the SMILES beside them. Lys(N3) = [N-]=[N+]=NCCCC[C@H](N)C(=O)O; R8 = C=CCCCCCC[C@@](C)(N)C(=O)O; Cba = N[C@@H](CC1CCC1)C(=O)O; S5 = C=CCCC[C@](C)(N)C(=O)O; βAla = NCCC(=O)O
parameter: EC50

INSERT INTO results (molecule, assayvalue) VALUES
  ('CC(C)C[C@H](NC(=O)CCNC(=O)[C@@H](N)CCCCN=[N+]=[N-])C(=O)N[C@H](C(=O)N[C@@H](Cc1ccccc1)C(=O)N[C@]1(C)CCCCCCC=CCCC[C@@](C)(C(N)=O)NC(=O)[C@H](CC2CCC2)NC(=O)[C@H](CCC(N)=O)NC(=O)[C@H](C)NC(=O)[C@H](Cc2c[nH]c3ccccc23)NC(=O)[C@H](Cc2ccc(O)cc2)NC(=O)[C@H](CCC(=O)O)NC1=O)[C@@H](C)O [MP-327] (H-[Lys(N3)][βAla]LTF[R8]EYWAQ[Cba][S5]-NH2; staple 6-13)', '> 50.6 µM'),
  ('CC(=O)N[C@@H](CCCCN=[N+]=[N-])C(=O)NCCC(=O)N[C@@H](CC(C)C)C(=O)N[C@H](C(=O)N[C@@H](CC1CCC1)C(=O)N[C@]1(C)CCCCCCC=CCCC[C@@](C)(C(=O)N[C@@H](CO)C(=O)N[C@@H](C)C(=O)N[C@@H](C)C(N)=O)NC(=O)[C@H](Cc2c[nH]c3ccccc23)NC(=O)[C@H](CCC(N)=O)NC(=O)[C@H](C)NC(=O)[C@H](Cc2ccccc2)NC(=O)[C@H](Cc2ccc(O)cc2)NC(=O)[C@H](CCC(=O)O)NC1=O)[C@@H](C)O [MP-791] (Ac-[Lys(N3)][βAla]LT[Cba][R8]EYFAQW[S5]SAA-NH2; staple 6-13)', '34.6 µM'),
  ('CC(=O)N[C@@H](CCCCN=[N+]=[N-])C(=O)NCCC(=O)N[C@@H](CC(C)C)C(=O)N[C@H](C(=O)N[C@@H](Cc1ccccc1)C(=O)N[C@]1(C)CCCCCCC=CCCC[C@@](C)(C(=O)N[C@@H](CO)C(=O)N[C@@H](C)C(=O)N[C@@H](C)C(N)=O)NC(=O)[C@H](CC2CCC2)NC(=O)[C@H](CCC(N)=O)NC(=O)[C@H](C)NC(=O)[C@H](Cc2c[nH]c3ccccc23)NC(=O)[C@H](CCC(=O)O)NC(=O)[C@H](C)NC1=O)[C@@H](C)O [MP-029] (Ac-[Lys(N3)][βAla]LTF[R8]AEWAQ[Cba][S5]SAA-NH2; staple 6-13)', '> 50.7 µM'),
  ('CC(=O)N[C@@H](CCCCN=[N+]=[N-])C(=O)N[C@@H](CCCCN)C(=O)N[C@@H](CCCCN)C(=O)N[C@@H](CC(C)C)C(=O)N[C@H](C(=O)N[C@@H](Cc1ccccc1)C(=O)N[C@]1(C)CCCCCCC=CCCC[C@@](C)(C(=O)N[C@@H](CO)C(=O)N[C@@H](C)C(=O)N[C@@H](C)C(N)=O)NC(=O)[C@H](CC2CCC2)NC(=O)[C@H](CCC(N)=O)NC(=O)[C@H](C)NC(=O)[C@H](Cc2c[nH]c3ccccc23)NC(=O)[C@H](Cc2ccc(O)cc2)NC(=O)[C@H](CCC(=O)O)NC1=O)[C@@H](C)O', '> 50 µM');

====

- testMethodNotes: Experimental LogD (partition coefficient)
- setupConditions: not stated, Partition Coeff LogD
Positions of bridges follow the written chain, without caps; N, C: chain ends. Non-standard residues stand in square brackets, D forms with d. Residues, ends and D or L forms follow the SMILES beside them. Lys(N3) = [N-]=[N+]=NCCCC[C@H](N)C(=O)O; R8 = C=CCCCCCC[C@@](C)(N)C(=O)O; S5 = C=CCCC[C@](C)(N)C(=O)O; βAla = NCCC(=O)O
Recorded measurements of logD, one per entry
parameter: logD

INSERT INTO results (compound, parameter, assayvalue) VALUES
  ('CC(=O)N[C@@H](CCCCN)C(=O)NCCCCCC(=O)N[C@H](C(=O)N[C@@H](CO)C(=O)N[C@@H](Cc1ccccc1)C(=O)N[C@]1(C)CCCCCCC=CCCC[C@@](C)(C(=O)N[C@@H](CCC(=O)O)C(=O)N[C@@H](CC(N)=O)C(=O)N[C@@H](Cc2ccccc2)C(N)=O)NC(=O)[C@H](CC(C)C)NC(=O)[C@H](CC(C)C)NC(=O)[C@H](C)NC(=O)[C@H](Cc2c[nH]c3ccccc23)NC(=O)[C@H](Cc2ccc(O)cc2)NC(=O)[C@H](CCC(=O)O)NC1=O)[C@@H](C)O', 'logD', 2.55),
  ('CC(=O)N[C@@H](CC(C)C)C(=O)N[C@H](C(=O)N[C@@H](Cc1ccccc1)C(=O)N[C@]1(C)CCCCCCC=CCCC[C@@](C)(C(=O)N[C@@H](CO)C(=O)N[C@@H](C)C(=O)N[C@@H](C)C(N)=O)NC(=O)[C@@H](CC2CCC2)NC(=O)[C@H](CC(C)C)NC(=O)[C@H](CCC(N)=O)NC(=O)[C@H](Cc2c[nH]c3ccccc23)NC(=O)[C@H](Cc2ccc(O)cc2)NC(=O)[C@H](CCC(=O)O)NC1=O)[C@@H](C)O', 'logD', 2.7),
  ('CC(=O)N[C@H](C(=O)N[C@@H](CO)C(=O)NC(C)(Cc1ccccc1)C(=O)N[C@]1(C)CCCCCCC=CCCC[C@@](C)(C(N)=O)NC(=O)[C@H](CC(C)C)NC(=O)[C@H](CC(C)C)NC(=O)[C@H](C)NC(=O)[C@H](Cc2c[nH]c3ccccc23)NC(=O)[C@H](Cc2ccc(O)cc2)NC(=O)[C@H](CCC(=O)O)NC1=O)[C@@H](C)O (some centres unmarked)', 'logD', 2.75),
  ('CC(C)C[C@H](NC(=O)CCNC(=O)[C@@H](N)CCCCN=[N+]=[N-])C(=O)N[C@H](C(=O)N[C@@H](Cc1ccccc1)C(=O)N[C@]1(C)CCCCCCC=CCCC[C@@](C)(C(N)=O)NC(=O)[C@H](CC(C)C)NC(=O)[C@H](CC(C)C)NC(=O)[C@H](C)NC(=O)[C@H](Cc2c[nH]c3ccccc23)NC(=O)[C@H](Cc2ccc(O)cc2)NC(=O)[C@H](CCC(=O)O)NC1=O)[C@@H](C)O [MP-0176] (H-[Lys(N3)][βAla]LTF[R8]EYWALL[S5]-NH2; staple 6-13)', 'logD', 2.85),
  ('CC(=O)N[C@@H](CCCCN=[N+]=[N-])C(=O)NCCC(=O)N[C@@H](CC(C)C)C(=O)N[C@H](C(=O)N[C@@H](Cc1ccccc1)C(=O)N[C@]1(C)CCCCCCC=CCCC[C@@](C)(C(=O)N[C@@H](CO)C(=O)N[C@@H](C)C(=O)N[C@@H](C)C(N)=O)NC(=O)[C@H](CC2CCC2)NC(=O)[C@H](CCC(N)=O)NC(=O)[C@H](Cc2c[nH]cn2)NC(=O)[C@H](Cc2c[nH]c3ccccc23)NC(=O)[C@H](Cc2ccc(O)cc2)NC(=O)[C@H](CCC(=O)O)NC1=O)[C@@H](C)O [MP-496, AZIDE-ATSP-7041 (A8H)]', 'logD', 2.63);

====

Recorded measurements of cell entry EC50, one per entry
- testMethodNotes: Nanoclick permeability assay
Positions of bridges follow the written chain, without caps; N, C: chain ends. Non-standard residues stand in square brackets, D forms with d. Residues, ends and D or L forms follow the SMILES beside them. Lys(N3) = [N-]=[N+]=NCCCC[C@H](N)C(=O)O; R8 = C=CCCCCCC[C@@](C)(N)C(=O)O; Cba = N[C@@H](CC1CCC1)C(=O)O; S5 = C=CCCC[C@](C)(N)C(=O)O; βAla = NCCC(=O)O
parameter: cell entry EC50 (nM)

INSERT INTO assay_data (molecule, unittext, assayvalue) VALUES
  ('CC(=O)N[C@@H](CCCCN=[N+]=[N-])C(=O)NCCC(=O)N[C@@H](CC(C)C)C(=O)N[C@H](C(=O)N[C@@H](Cc1ccccc1)C(=O)N[C@]1(C)CCCCCCC=CCCC[C@@](C)(C(=O)NCC(=O)NCC(=O)NCC(=O)NCC(=O)NCC(=O)NCC(N)=O)NC(=O)[C@H](CC2CCC2)NC(=O)[C@H](CCC(N)=O)NC(=O)[C@H](C)NC(=O)[C@H](Cc2c[nH]c3ccccc23)NC(=O)[C@H](Cc2ccc(O)cc2)NC(=O)[C@H](CCC(=O)O)NC1=O)[C@@H](C)O [MP-289] (Ac-[Lys(N3)][βAla]LTF[R8]EYWAQ[Cba][S5]GGGGGG-NH2; staple 6-13)', 'nM', 615),
  ('CC(=O)N[C@@H](CCCCN=[N+]=[N-])C(=O)NCCC(=O)N[C@@H](C)C(=O)N[C@H](C(=O)N[C@@H](Cc1ccccc1)C(=O)N[C@]1(C)CCCCCCC=CCCC[C@@](C)(C(=O)N[C@@H](CO)C(=O)N[C@@H](C)C(=O)N[C@@H](C)C(N)=O)NC(=O)[C@H](CC2CCC2)NC(=O)[C@H](CCC(N)=O)NC(=O)[C@H](C)NC(=O)[C@H](Cc2c[nH]c3ccccc23)NC(=O)[C@H](Cc2ccc(O)cc2)NC(=O)[C@H](CCC(=O)O)NC1=O)[C@@H](C)O [MP-952, AZIDE-ATSP-7041 (L1A)]', 'nM', 192),
  ('CC(=O)N[C@@H](CCCCN=[N+]=[N-])C(=O)NCCC(=O)N[C@@H](CC(C)C)C(=O)N[C@H](C(=O)N[C@@H](Cc1ccccc1)C(=O)N[C@]1(C)CCCCCCC=CCCC[C@@](C)(C(=O)N[C@@H](CO)C(=O)N[C@@H](C)C(=O)N[C@@H](C)C(N)=O)NC(=O)[C@H](CC2CCC2)NC(=O)[C@H](Cc2c[nH]cn2)NC(=O)[C@H](C)NC(=O)[C@H](Cc2c[nH]c3ccccc23)NC(=O)[C@H](Cc2ccc(O)cc2)NC(=O)[C@H](CCC(=O)O)NC1=O)[C@@H](C)O [MP-176, AZIDE-ATSP-7041 (Q9H)]', 'nM', 396),
  ('CC(=O)N[C@@H](CCCCN=[N+]=[N-])C(=O)NCCC(=O)N[C@H]1CCCCNC(=O)CC[C@@H]2NC(=O)[C@@](C)(CCCCCCC=CCCC[C@@](C)(C(=O)N[C@@H](CO)C(=O)N[C@@H](C)C(=O)N[C@@H](C)C(N)=O)NC(=O)[C@H](CC3CCC3)NC(=O)[C@H](CCC(N)=O)NC(=O)[C@H](C)NC(=O)[C@H](Cc3c[nH]c4ccccc34)NC(=O)[C@H](Cc3ccc(O)cc3)NC2=O)NC(=O)[C@H](Cc2ccccc2)NC(=O)[C@H]([C@@H](C)O)NC1=O [MP-002]', 'nM', 462),
  ('CC(=O)N[C@@H](CCCCN=[N+]=[N-])C(=O)NCCC(=O)N[C@@H](CCCCN)C(=O)N[C@H](C(=O)N[C@@H](Cc1ccccc1)C(=O)N[C@]1(C)CCCCCCC=CCCC[C@@](C)(C(=O)N[C@@H](CO)C(=O)N[C@@H](C)C(=O)N[C@@H](C)C(N)=O)NC(=O)[C@H](CC2CCC2)NC(=O)[C@H](CCC(N)=O)NC(=O)[C@H](C)NC(=O)[C@H](Cc2c[nH]c3ccccc23)NC(=O)[C@H](Cc2ccc(O)cc2)NC(=O)[C@H](CCC(=O)O)NC1=O)[C@@H](C)O [MP-546, AZIDE-ATSP-7041 (L1K)]', 'nM', 210),
  ('CC(=O)N[C@@H](CCCCN=[N+]=[N-])C(=O)NCCC(=O)N[C@@H](CC(C)C)C(=O)N[C@H](C(=O)N[C@@H](C)C(=O)N[C@]1(C)CCCCCCC=CCCC[C@@](C)(C(=O)N[C@@H](CO)C(=O)N[C@@H](C)C(=O)N[C@@H](C)C(N)=O)NC(=O)[C@H](CC2CCC2)NC(=O)[C@H](CCC(N)=O)NC(=O)[C@H](C)NC(=O)[C@H](Cc2c[nH]c3ccccc23)NC(=O)[C@H](Cc2ccc(O)cc2)NC(=O)[C@H](CCC(=O)O)NC1=O)[C@@H](C)O [MP-892, AZIDE-ATSP-7041 (F3A)]', 'nM', 465),
  ('CC(=O)N[C@@H](CCCCN=[N+]=[N-])C(=O)NCCC(=O)N[C@@H](CC(C)C)C(=O)N[C@H](C(=O)N[C@@H](Cc1ccccc1)C(=O)N[C@]1(C)CCCCCCC=CCCC[C@@](C)(C(=O)NCC(=O)N[C@@H](C)C(=O)N[C@@H](C)C(N)=O)NC(=O)[C@H](CC2CCC2)NC(=O)[C@H](CCC(N)=O)NC(=O)[C@H](C)NC(=O)[C@H](Cc2c[nH]c3ccccc23)NC(=O)[C@H](Cc2ccc(O)cc2)NC(=O)[C@H](CCC(=O)O)NC1=O)[C@@H](C)O [MP-798] (Ac-[Lys(N3)][βAla]LTF[R8]EYWAQ[Cba][S5]GAA-NH2; staple 6-13)', 'nM', 82.9),
  ('CC(=O)N[C@@H](CCCCN=[N+]=[N-])C(=O)NCCC(=O)N[C@@H](CC(C)C)C(=O)N[C@H](C(=O)N[C@@H](Cc1ccccc1)C(=O)N[C@]1(C)CCCCCCC=CCCC[C@@](C)(C(=O)N[C@@H](CO)C(=O)N[C@@H](C)C(=O)N[C@@H](C)C(N)=O)NC(=O)[C@H](CC2CCC2)NC(=O)[C@H](CCC(N)=O)NC(=O)[C@H](C)NC(=O)[C@H](Cc2c[nH]c3ccccc23)NC(=O)[C@H](Cc2ccc(O)cc2)NC(=O)[C@@H]2CCCN2C1=O)[C@@H](C)O [MP-8834]', 'nM', 312);
